# TARGET_SYSTEM: USP7 (Homo sapiens, UniProt Q93009)
# Construct: USP7, construct USP7 (208-1102) 6*His, Viva Biotech; 6xHis (C); purchased Viva Biotech
# Sequence (Q93009 208-1102): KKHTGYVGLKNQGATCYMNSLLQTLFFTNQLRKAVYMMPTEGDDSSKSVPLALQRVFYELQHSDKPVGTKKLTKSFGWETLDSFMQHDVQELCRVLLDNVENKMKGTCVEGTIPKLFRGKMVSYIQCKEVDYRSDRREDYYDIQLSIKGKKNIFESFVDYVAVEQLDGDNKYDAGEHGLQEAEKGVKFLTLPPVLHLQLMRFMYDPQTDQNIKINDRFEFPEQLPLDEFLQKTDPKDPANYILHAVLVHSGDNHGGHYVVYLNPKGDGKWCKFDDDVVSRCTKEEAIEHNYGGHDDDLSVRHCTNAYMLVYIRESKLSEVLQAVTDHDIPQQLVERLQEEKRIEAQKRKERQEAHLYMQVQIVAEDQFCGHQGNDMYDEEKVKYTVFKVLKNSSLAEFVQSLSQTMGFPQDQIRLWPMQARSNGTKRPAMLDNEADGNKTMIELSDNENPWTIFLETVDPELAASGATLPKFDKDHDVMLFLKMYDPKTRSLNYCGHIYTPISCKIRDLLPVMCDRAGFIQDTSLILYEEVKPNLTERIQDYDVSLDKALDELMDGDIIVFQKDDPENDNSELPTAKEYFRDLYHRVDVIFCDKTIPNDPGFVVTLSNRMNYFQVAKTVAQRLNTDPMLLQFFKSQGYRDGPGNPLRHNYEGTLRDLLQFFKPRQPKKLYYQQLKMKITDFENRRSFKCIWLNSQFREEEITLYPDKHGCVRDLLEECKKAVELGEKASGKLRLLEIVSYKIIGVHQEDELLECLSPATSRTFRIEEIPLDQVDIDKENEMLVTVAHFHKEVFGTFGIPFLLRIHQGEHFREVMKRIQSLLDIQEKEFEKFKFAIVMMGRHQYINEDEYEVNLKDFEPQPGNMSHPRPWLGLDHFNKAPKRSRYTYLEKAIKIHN
# METHOD_DESCRIPTION: USP7 Assay A (Ubitquin-Rhodamine 110 Assay)
# Assay type: biochemical
# EXPERIMENTAL_CONDITIONS: USP7 activity in USP7 assay A and B (table does not say which assay per compound); read-out: USP7_IC50
VALUE_KIND: IC50

Solved cases below.
(Q) Value lookup for IC50; key = C[C@@H](CC(=O)N1CCC(O)(Cn2cnc3c(cnn3-c3ccc(N4CC[C@@](C)(O)C4)cc3)c2=O)CC1)n1cccn1 [Compound I-838]
(A) 1000 to 10000 nM

(Q) What do we get for CC1(C(=O)N2CCC(O)(Cn3cnc4c(cnn4-c4cccc(N5CC(C6CCOCC6)C5)c4)c3=O)CC2)CC1 ?
(A) 200 to 1000 nM

---
(Q) Request the reported IC50 associated with Cn1cc(C(=O)N2CCC(O)(Cn3cnc4c(cnn4-c4ccc(F)cc4)c3=O)CC2)c(Cc2ccccc2)n1
(A) < 200 nM

(Q) Also, Cc1cnn(-c2ccc(-n3ncc4c(=O)n(CC5(O)CCN(C(=O)c6cnc(C)o6)CC5)cnc43)cc2)c1 please.
(A) < 200 nM

(Q) Repeat for the following molecule: Cc1cnn([C@H](CC(=O)N2CCC(O)(Cn3cnc4c(cnn4-c4ccc(F)cc4)c3=O)CC2)C(F)F)c1
(A) 1000 to 10000 nM

(Q) Ok, now O=C(C1CCC(NC2CC2)CC1)N1CCC(O)(Cn2cnc3c(cnn3-c3ccc(F)cc3)c2=O)CC1 (stereo not shown) [Compound I-1072]
(A) 1000 to 10000 nM

(Q) Field entry: N#Cc1ccc(OC2CCC(C(=O)N3CCC(O)(Cn4cnc5c(cnn5-c5ccc(F)cc5)c4=O)CC3)CC2)nc1 (stereo not shown)
(A) 200 to 1000 nM

# credit: patent US9902728B2
